molecular target: human plasma kallikrein (human, UniProt P03952 20-390; P03952 391-638); experiment: cell-based or functional assay
Sequence (P03952 20-390, chain 1 of 2): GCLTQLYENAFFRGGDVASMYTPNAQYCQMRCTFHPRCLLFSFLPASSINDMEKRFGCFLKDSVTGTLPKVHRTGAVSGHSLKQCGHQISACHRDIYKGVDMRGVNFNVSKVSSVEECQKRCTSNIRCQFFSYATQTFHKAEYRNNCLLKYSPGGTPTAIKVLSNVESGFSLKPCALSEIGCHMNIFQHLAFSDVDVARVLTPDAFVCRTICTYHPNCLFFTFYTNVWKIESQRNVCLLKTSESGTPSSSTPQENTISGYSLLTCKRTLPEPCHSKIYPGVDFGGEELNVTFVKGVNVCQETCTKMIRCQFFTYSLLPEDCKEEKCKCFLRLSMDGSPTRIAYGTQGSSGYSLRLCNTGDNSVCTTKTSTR
Sequence (P03952 391-638, chain 2 of 2): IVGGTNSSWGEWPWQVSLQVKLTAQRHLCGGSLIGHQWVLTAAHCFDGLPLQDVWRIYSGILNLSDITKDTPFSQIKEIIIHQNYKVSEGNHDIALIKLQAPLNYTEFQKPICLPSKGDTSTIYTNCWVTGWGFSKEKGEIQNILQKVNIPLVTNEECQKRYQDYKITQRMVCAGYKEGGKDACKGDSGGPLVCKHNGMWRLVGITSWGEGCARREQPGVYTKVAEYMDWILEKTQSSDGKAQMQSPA

{"binder": "M205-A12 (Fab, V domains shown) VH: EVQLLESGGGLVQPGGSLRLSCAASGFTFSQYDMIWVRQAPGKGLEWVSYISSSGGFTRYADSVKGRFTISRDNSKNTLYLQMNSLRAEDTAVYYCARVARGIAARSRTSYFDYWGQGTLVTVSS VL: DIQMTQSPGTLSLSPGERATLSCRTSQFVNSNYLAWYQQTPGQAPRLLIYGASSRATGIPDRFSGTGYGTDFTLTISRLEPEDYGTYYCQQSSRTPWTFGQGTRVEIK", "% inhibition at 10 nM": "58.8%"}
{"binder": "M208-D12 (Fab, V domains shown) VH: EVQLLESGGGLVQPGGSLRLSCAASGFTFSHYLMTWVRQAPGKGLEWVSYISPSGGHTIYADSVKGRFTISRDNSKNTLYLQMNSLRAEDTAVYYCARLARGIAARSRTSYQDIWGQGTLVTVSS VL: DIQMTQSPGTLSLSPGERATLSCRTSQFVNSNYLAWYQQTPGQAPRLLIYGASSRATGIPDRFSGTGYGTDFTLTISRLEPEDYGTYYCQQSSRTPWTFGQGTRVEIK", "% inhibition at 10 nM": "43.7%"}
{"binder": "M209-B11 (Fab, V domains shown) VH: EVQLLESGGGLVQPGGSLRLSCAASGFTFSHYLMTWVRQAPGKGLEWVSYISPSGGHTIYADSVKGRFTISRDNSKNTLYLQMNSLRAEDTAVYYCARVARGIAARSRTRYIDQWGQGTLVTVSS VL: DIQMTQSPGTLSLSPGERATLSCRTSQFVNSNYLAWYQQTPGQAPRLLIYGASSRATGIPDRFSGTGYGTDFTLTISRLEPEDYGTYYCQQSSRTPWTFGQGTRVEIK", "% inhibition at 10 nM": "87.3%"}
